# target system: T1, human RANKL protein (human, UniProt O14788 140-317, limits assumed)
# T1 sequence (looked up): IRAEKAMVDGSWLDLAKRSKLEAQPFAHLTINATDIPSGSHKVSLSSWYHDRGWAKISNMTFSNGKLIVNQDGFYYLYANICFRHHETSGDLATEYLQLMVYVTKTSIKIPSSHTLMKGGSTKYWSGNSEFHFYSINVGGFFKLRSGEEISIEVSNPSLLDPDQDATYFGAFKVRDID
# assay info: competition ELISA: RANKL (0.5 ug/ml) pre-incubated with the antibody, then binding to coated human RANK (8 ug/ml) detected; blocked partner RANK
observable: IC50 (µg/mL)
Respond numerically; units are µg/mL and should not be typed.

{"binder": "clone 23 rabbit anti-RANKL antibody (antibody, V domains shown, also called RabMAb 23; parent 23 rabbit antibody) VH: QEQLKESGGGLVTPGGTLTLTCTASGFSLSSDGMSWVRQAPGKGLEWIGYIYSGSSPYYANWAKGRFTISKTSSTTVDLKMTSLTTEDTATYFCARHGSGGGWYLDIWGPGTLVTVSS VL: AYDMIQTPASVEVAVGGTVTINCQASQTIGTNLAWYQQKPGQRPKLLIYAASTLPSGVSSRFKGSGSGTQFTLTISDVECSDAATYYCQQAYSVGNVDNAFGGGTEVVVK", "recorded value": 0.0111}
{"binder": "clone 193 rabbit anti-RANKL antibody (antibody, V domains shown) VH: QSVEESGGRLVTPGTPLTLTCTFSGFSLSNNAINWVRQAPGKGLEWIGYTWSGGGTYCASWAKGRFTISKTSSTTVDLKMTSLTTEDTATYFCARAYDSEWDRLDLWGQGTLVTVSS VL: VMTQTPASVSGPVGGTVTIKCQASQSIGSNLGWYQQKPGQPPKLLIFSASNLESGVPSRFKGSGSGTQFTLTISDLECDDAATYYCQQGYTTNNVLNAFAGGTEVVVK", "recorded value": 0.0665}
{"binder": "clone 210 rabbit anti-RANKL antibody (antibody, V domains shown) VH: QSVKESGGGLVTPGGTLTLTCTASGFSLSNNAMSWVRQAPGKGLEWIGYIYPGGSPYYANWAKGRFTISRTSTTVDLKMTSLTTEDTATYFCARHVSDGGWYLYIWGPGTLVTVSL VL: DMIQTPASVEVAVGGTVTINCQASQSIGSNLAWYQQKPGQPPKLLIYGASTLASGVPSRFKGSGSGTQFTFTISDVECTAAATYYCQQAYSISNVDNAFGGGTEVVVK", "recorded value": 0.071}

Please look at the following binder next.
Query: Find the recorded IC50 belonging to clone 174 rabbit anti-RANKL antibody (antibody, V domains shown) VH: QEQLQESGGGLITPGGTLTLTCTASGFSFNRNALSWVRQAPGKGLEWIGYIYSGGSPYYANWAKGRFNVSRTSTTVDLRMTSLTTEDTATYFCARHVSGGGWYLDIWGPGTLVTVSL VL: DMIQTPASVEVAVGGTVTINCQASQNIGSNLAWYQQKPGQPPKLLIYGTSTLASGVSSRFKGSGFGTQFTFTISDVECTDAATYYCQQAYSISNVDNAFGGGTEVVVK and report it.
Result: 0.0762

Where do the numbers come from? From patent US20160032001A1.
